- Target under test: human recombinant ENPP1 (Homo sapiens, UniProt P22413)
- Sequence (P22413 1-925): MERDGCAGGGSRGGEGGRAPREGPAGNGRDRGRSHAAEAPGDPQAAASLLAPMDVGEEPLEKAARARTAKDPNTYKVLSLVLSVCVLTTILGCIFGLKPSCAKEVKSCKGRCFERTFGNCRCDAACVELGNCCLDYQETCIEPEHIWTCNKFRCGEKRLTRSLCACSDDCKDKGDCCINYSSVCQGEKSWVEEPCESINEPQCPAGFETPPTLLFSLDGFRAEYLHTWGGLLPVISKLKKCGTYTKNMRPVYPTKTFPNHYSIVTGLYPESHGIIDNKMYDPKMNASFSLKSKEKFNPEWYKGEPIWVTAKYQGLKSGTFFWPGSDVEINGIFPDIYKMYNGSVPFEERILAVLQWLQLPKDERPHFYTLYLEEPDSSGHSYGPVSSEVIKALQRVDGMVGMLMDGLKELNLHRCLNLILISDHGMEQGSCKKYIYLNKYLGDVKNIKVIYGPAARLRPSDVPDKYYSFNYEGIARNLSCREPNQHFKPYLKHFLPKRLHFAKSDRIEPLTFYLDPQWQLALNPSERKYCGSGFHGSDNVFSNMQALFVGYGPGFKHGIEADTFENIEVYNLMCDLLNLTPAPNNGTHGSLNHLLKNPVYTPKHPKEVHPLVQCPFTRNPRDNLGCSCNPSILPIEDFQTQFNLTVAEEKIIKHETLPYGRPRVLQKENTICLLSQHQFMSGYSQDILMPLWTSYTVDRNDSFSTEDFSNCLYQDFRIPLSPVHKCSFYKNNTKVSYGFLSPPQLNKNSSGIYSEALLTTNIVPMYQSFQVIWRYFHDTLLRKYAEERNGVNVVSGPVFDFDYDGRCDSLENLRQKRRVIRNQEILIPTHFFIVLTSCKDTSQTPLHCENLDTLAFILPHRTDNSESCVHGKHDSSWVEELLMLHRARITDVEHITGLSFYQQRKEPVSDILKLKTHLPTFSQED
- Protocol summary: ENPP1 enzyme assay with cGAMP substrate (AMP-Glo luminescence)
- Condition context: human recombinant ENPP1 3 ng/reaction, cGAMP 5 μM, 37° C. 90 minutes, read-out: Enzymatic activity (ENPP1 IC50)
Counter-ions that a name gives are not always drawn.
Property: IC50

Use these answered entries as a reference point.
CNc1ccc(Cc2n[nH]c(=O)c3cc(OC)c(OC)cc23)cc1 [Example 163, hydrochloride]: > 10 µM
COc1cc2c(Cc3ccc(NS(N)(=O)=O)cc3)nn(C)c(=O)c2cc1OC [Example 183, hydrochloride]: < 1 µM
Cn1nc(-c2cccc(CNS(N)(=O)=O)c2)c2ccccc2c1=O [Compound No. 94, trifluoroacetic acid]: < 1 µM
COc1cc2c(Cc3cccc(NC(=O)OC(C)(C)C)c3)n[nH]c(=O)c2cc1OC [Compound No. 145]: > 10 µM
COc1cc2c(Nc3cccc(NS(N)(=O)=O)c3)nn(C)c(=O)c2cc1OC [Compound No. 141, hydrochloride]: 1 to 10 µM

Request: I would be grateful if you could share the reported IC50 for COc1cc2c(Cc3cccc(N)c3)n[nH]c(=O)c2cc1OC [Example 156, hydrochloride] .
Result: > 10 µM

Request: I would be grateful if you could share the reported IC50 for NS(=O)(=O)NCc1ccc(-c2nn(Cc3ccc(F)cc3)c(=O)c3ccccc23)cc1 [Compound No. 102, hydrochloride] .
Result: 1 to 10 µM

Request: I would be grateful if you could share the reported IC50 for COc1cc2c(-c3ccc(CNS(N)(=O)=O)c(F)c3)n[nH]c(=O)c2cc1OC [Compound No. 111, hydrochloride] .
Result: < 1 µM

Request: I would be grateful if you could share the reported IC50 for Cn1nc(-c2ccc(CNS(N)(=O)=O)cc2)c2ccccc2c1=O [Compound No. 97, hydrochloride] .
Result: < 1 µM

Request: I would be grateful if you could share the reported IC50 for CC(C)(C)OC(=O)NCc1ccc(-c2nn(Cc3ccc(F)cc3)c(=O)c3ccccc23)cc1 [Compound No. 14] .
Result: > 10 µM

Source listed as patent US20230159469A1.
